Data provenance: paper PMC10035947

For each of the compounds below, state its Selectivity ratio I/XII.
biological target: hCA XII (Homo sapiens, UniProt O43570); construct: made in house; assay: stopped flow CO2 hydrase assay; type: biochemical; conditions: KI hCA I / KI hCA XII
Sequence (O43570 25-354): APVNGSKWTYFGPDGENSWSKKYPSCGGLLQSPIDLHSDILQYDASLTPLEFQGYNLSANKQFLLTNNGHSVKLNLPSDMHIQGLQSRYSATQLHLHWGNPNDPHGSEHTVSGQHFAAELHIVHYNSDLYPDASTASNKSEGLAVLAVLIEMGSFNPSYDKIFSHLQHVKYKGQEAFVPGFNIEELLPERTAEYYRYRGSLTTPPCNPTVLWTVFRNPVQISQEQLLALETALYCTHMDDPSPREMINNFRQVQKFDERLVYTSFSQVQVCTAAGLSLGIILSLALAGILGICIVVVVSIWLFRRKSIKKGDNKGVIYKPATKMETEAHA
One number for each entry.

STRUCTURE AS SMILES: Cc1cccc(-c2nc(Nc3ccccc3C(=O)O)c3ccccc3n2)c1
REPORTED METRIC: Selectivity ratio I/XII
RECORDED RESULT: 11.1
//
STRUCTURE AS SMILES: Cc1ccc(-c2nc(Nc3ccc(C(=O)O)cc3)c3ccccc3n2)cc1
REPORTED METRIC: Selectivity ratio I/XII
RECORDED RESULT: 174.3

Okay, next one:
Query block: Recorded Selectivity ratio I/XII for Cc1ccc(-c2nc(Nc3cccc(C(=O)O)c3)c3ccccc3n2)cc1 , please?
Result block: 109.9

* * *

target: hCA XII (Homo sapiens, UniProt O43570); construct: made in house; assay: stopped flow CO2 hydrase assay; format: biochemical; conditions: mean from 3 assays
pKi: −log10 of the molar value.
# binarize pKi: threshold 6 inclusive, high side Yes, low side No

Query block: Is reported pKi greater than or equal to 6 here: Cc1ccc(-c2nc(Nc3ccc(C(=O)O)cc3)c3ccccc3n2)cc1
Result block: Yes

Query block: Is reported pKi greater than or equal to 6 here: COc1ccc(-c2nc(Nc3ccc(C(=O)O)cc3)c3ccccc3n2)cc1
Result block: Yes

Query block: Is reported pKi greater than or equal to 6 here: COc1ccc(-c2nc(Nc3cccc(C(=O)O)c3)c3ccccc3n2)cc1
Result block: Yes

Query block: Is reported pKi greater than or equal to 6 here: Cc1cccc(-c2nc(Nc3cccc(C(=O)O)c3)c3ccccc3n2)c1
Result block: No

Query block: Is reported pKi greater than or equal to 6 here: COc1ccc(-c2nc(Nc3ccccc3C(=O)O)c3ccccc3n2)cc1
Result block: No

Query block: Is reported pKi greater than or equal to 6 here: Cc1cccc(-c2nc(Nc3ccc(C(=O)O)cc3)c3ccccc3n2)c1
Result block: No

Query block: Is reported pKi greater than or equal to 6 here: Cc1cccc(-c2nc(Nc3ccccc3C(=O)O)c3ccccc3n2)c1
Result block: No

Query block: Is reported pKi greater than or equal to 6 here: Cc1ccc(-c2nc(Nc3ccccc3C(=O)O)c3ccccc3n2)cc1
Result block: No

* * *

For each of the compounds below, state its Growth Percent.
system: LOX IMVI; assay: NCI SRB assay; type: cell-based, human; details: 1.00E-5 Molar
Answers are plain numbers, in %.

STRUCTURE AS SMILES: COc1ccc(-c2nc(Nc3ccccc3C(=O)O)c3ccccc3n2)cc1
UNIT SYMBOL: %
Growth Percent: 49.53
//
STRUCTURE AS SMILES: Cc1ccc(-c2nc(Nc3cccc(C(=O)O)c3)c3ccccc3n2)cc1
UNIT SYMBOL: %
Growth Percent: 81.15
//
STRUCTURE AS SMILES: Cc1ccc(-c2nc(Nc3ccccc3C(=O)O)c3ccccc3n2)cc1
UNIT SYMBOL: %
Growth Percent: 8.57

Count: 3. Required value per item: Growth Percent.
1. Cc1ccc(-c2nc(Nc3ccc(C(=O)O)cc3)c3ccccc3n2)cc1
2. Cc1cccc(-c2nc(Nc3ccc(C(=O)O)cc3)c3ccccc3n2)c1
3. Cc1cccc(-c2nc(Nc3ccccc3C(=O)O)c3ccccc3n2)c1

Result block:
1: 57.05; 2: 71.49; 3: 36.42
